List of Kd tested on human CD28 Protein, His Tag (Homo sapiens, UniProt P10747).
Sequence (P10747 19-152): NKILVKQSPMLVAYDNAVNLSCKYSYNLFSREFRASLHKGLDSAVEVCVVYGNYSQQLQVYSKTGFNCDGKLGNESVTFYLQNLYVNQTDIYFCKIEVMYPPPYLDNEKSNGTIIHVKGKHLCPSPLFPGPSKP
measured.parameter: Kd (µM)

| input.smiles | tgt | measured.number |
| --- | --- | --- |
| CCN(CC)C(=O)/C(C#N)=C/c1cc(O)c(O)c([N+](=O)[O-])c1 | human CD28 Protein, His Tag (Homo sapiens, UniProt P10747) | 45.6 |

I: Cc1nc(C#Cc2ccnc(Cl)c2)c(C)n1-c1ccc(OC(F)(F)F)cc1
II: O=C(Cc1ccccc1)c1cc(O)c(O)c([N+](=O)[O-])c1
III: Nc1c(C(=O)O)c2nc3c(C(=O)O)cccc3oc-2cc1=O
Your job: order these 3 records by Kd, ascending. Dear reader, please state the labels in the requested order.
III, II, I
(III: 14.6 µM, II: 45.1 µM, I: 236 µM)

---

Target: Biotinylated human CD28 protein (His-tagged, AviTag) (Homo sapiens, UniProt P10747)
measured.parameter: pKd
Reminder that pKd means the negative base-10 logarithm of the concentration expressed in mol/L.

Which pKd is reported with Biotinylated human CD28 protein (His-tagged, AviTag) (Homo sapiens, UniProt P10747) for this entry: "Cc1nc(C#Cc2ccnc(Cl)c2)c(C)n1-c1ccc(OC(F)(F)F)cc1" ?
3.74

---

pKd: −log10 of the molar value.
# pKd measurements, system: human CD28 Protein, His Tag (Homo sapiens, UniProt P10747)
measured.parameter: pKd

| compound | pKd |
| --- | --- |
| CC(C)=CCC/C(C)=C/CC/C(C)=C/C=C/C(C)=C/C(=O)O [2L10, Peretinoin] | 3.55 |

A: CNc1nc2ccccc2n2c(-c3ccc(O)c(O)c3)cnc12 [2B06, EAPB 02303]
B: CN1c2ccc([N+](=O)[O-])cc2N=C(c2ccc(C(=O)O)cc2)c2cc3c(cc21)C(C)(C)CCC3(C)C [1K19, HX531]
Could you point out whether the larger pKd belongs to A or to B ? Reply briefly: the label of your chosen item.
A

Every entry's value here was drawn from paper doi:10.1101/2025.05.27.656499v1.
